I'd be grateful if you could share measured GI50 for these entries.
- System: HCT-116 colon
- assay explanation: NCI tumour cell line growth inhibition, 48 h

# annotated cases, reported GI50 shown
compound | target under test | GI50
S=C(Nc1ccccc1)c1ccccn1 | HCT-116 colon | 51.3 µM
Cc1sc2ncnc(Sc3nc4ccccc4[nH]3)c2c1C | HCT-116 colon | 24 µM

Below is a list of compounds. For each, state its recorded GI50.
1. OCCNc1nc(NCCO)nc(Nc2ccc(C3=NN(c4cc(Cl)cc(Cl)c4)C(c4ccc(Cl)cc4)C3)cc2)n1 (configuration not stated)
2. COc1ccc(C2CC(=O)Nc3c2c(C)nn3-c2nc3ccccc3[nH]2)cc1 (configuration not stated)
3. Cc1c(C(=O)/C=C/c2ccc(O)cc2)nnn1-c1ccnc2c(C(F)(F)F)cccc12
4. CCCCCCn1c(-c2ccc(C(=O)O/N=C(\N)c3ccc(OC)cc3)cc2)nc(-c2ccccc2)c1-c1ccccc1
5. CCCCCC(=O)N1c2ccccc2NC2=C(C(=O)CC(c3ccc(OC)c(OC)c3)C2)C1c1ccc(C(F)(F)F)cc1 (configuration not stated)

*A*
["1.59 µM", "2.12 µM", "6.66 µM", "1.4 µM", "72.1 µM"]

Below is a list of compounds. For each, state its recorded GI50.
1. COc1ccc(C2=NNC(c3ccc(-c4ccc(OC)cc4[N+](=O)[O-])o3)C2)cc1 (configuration not stated)
2. CC[C@@]1(O)C(=O)NCc2c1cc1n(c2=O)Cc2cc3cc4c(cc3nc2-1)OCO4
3. O=C1N=C2c3c(sc4c3CCCC4)N=CN2C1N=Nc1ccc(Cl)cc1 (configuration not stated)
4. CNC(=O)c1cc(Oc2ccc3nc(NC(=O)Nc4ccc(Cl)c(Cl)c4)sc3c2)ccn1
5. C[C@]12CC[C@H]3[C@@H](CC=C4C[C@@H](O)CC[C@@]43C)[C@@H]1C/C(=C\c1cccc(OCCN3CCOCC3)c1)[C@@H]2O

*A*
["22.8 µM", "0.883 µM", "17.8 µM", "1.88 µM", "80.6 µM"]

====

- Test system: SW-620 colon
- assay explanation: NCI tumour cell line growth inhibition, 48 h
I'd be grateful if you could share measured TGI for these entries.

compound | reported metric | observed result
O=S(=O)(O)C(F)(F)C(F)(F)C(F)(F)C(F)(F)F | TGI | > 100 µM
COc1c(O)cc(/C=C/c2cc(O)cc3c2[C@@]2(C(=O)O3)c3c(O)cc(O)cc3OC2c2cccc(O)c2)cc1O (some centres undefined) | TGI | > 100 µM
CCOC(=O)CCc1c(C(=O)OCC)[nH]c(/C=C2/NC(=O)C(C)=C2CC)c1C | TGI | > 100 µM
CCCOc1ccc(/C=C\c2cc(OC)c(OC)c(OC)c2)cc1 | TGI | > 100 µM
CCN=C1NN=C(c2ccccc2)c2cc(Cl)ccc2N1 | TGI | 63.8 µM

Below is a list of compounds. For each, state its recorded TGI.
1. NN/C(=N\S(=O)(=O)c1cc(Cl)c(Oc2ccc([N+](=O)[O-])cc2Cl)c(Cl)c1)Nc1ccc(Cl)cc1
2. CCOC(=O)C1CCC/C1=N\N=C(N)N (centres undefined) (tested in a mixture with another compound)
3. Cc1ccc2c(ccc3c[n+]4ccccc4c(C)c32)c1
4. CC(=O)Nc1c(C)cc(OCC(=O)O)cc1C

*A*
["> 100 µM", "> 100 µM", "22.8 µM", "> 100 µM"]
